Source of measurements: paper PMC8765310

- ASSAY_DETAILS: Monkey metabolite profiling (LC-MS with radioactivity detection)
- Assay type: in vivo, cynomolgus monkeys
- EXPERIMENTAL_SETUP: cynomolgus monkey, in vivo, iv, 10 mg/kg
*1 amine or outer side, *2 acyl side, *3 side chain or, on linkers, in order; H or OH if unused. Where a SMILES comes first, the peptide text is derived from it. Bridges are numbered along the chain shown (N, C = ends). [ ]: non-standard residue; d: D form. The star is where a group is joined. Orn(4R-OH,5R-OCH2CH2NMe3+) = C[N+](C)(C)CCO[C@@H](N[*:3])[C@H](O)C[C@H](N[*:1])C(=O)[*:2]; hTyr(3S-OH,4S-OH) = N[C@H](C(=O)O)[C@H](O)[C@@H](O)c1ccc(O)cc1; X3 = CCC(O)CCOc1ccc(-c2ccc(-c3ccc(C(=O)*)cc3)cc2)cc1; Pro(3S-OH,4S-Me) = C[C@H]1CN[C@H](C(=O)O)[C@H]1O; Hyp = O=C(O)[C@@H]1C[C@@H](O)CN1
READOUT: Share of total recovered radioactivity in urine (%)

| MOLECULE | VALUE_MEASURED |
| --- | --- |
| CCC(O)CCOc1ccc(-c2ccc(-c3ccc(C(=O)N[C@H]4C[C@@H](O)[C@@H](OCC[N+](C)(C)C)NC(=O)[C@@H]5[C@@H](O)[C@@H](C)CN5C(=O)[C@H]([C@@H](C)O)NC(=O)[C@H]([C@H](O)[C@@H](O)c5ccc(O)cc5)NC(=O)[C@@H]5C[C@@H](O)CN5C(=O)[C@H]([C@@H](C)O)NC4=O)cc3)cc2)cc1 (stereo partly drawn) [3′-hydroxylpentyl rezafungin] (X3-[Orn(4R-OH,5R-OCH2CH2NMe3+)]T[Hyp][hTyr(3S-OH,4S-OH)]T[Pro(3S-OH,4S-Me)]; lactam 1-C) | 12 |

###

- ASSAY_DETAILS: Human clinical pharmacokinetics (plasma rezafungin, plasma and whole blood total radioactivity)
- Assay type: in vivo
- EXPERIMENTAL_SETUP: male, plasma, single 400-mg IV infusion, terminal elimination half-life, mean (SD), SD, read-out: t½, plasma rezafungin (converted)
*1 amine or outer side, *2 acyl side, *3 side chain or, on linkers, in order; H or OH if unused. Where a SMILES comes first, the peptide text is derived from it. Bridges are numbered along the chain shown (N, C = ends). [ ]: non-standard residue; d: D form. The star is where a group is joined. Orn(4R-OH,5R-OCH2CH2NMe3+) = C[N+](C)(C)CCO[C@@H](N[*:3])[C@H](O)C[C@H](N[*:1])C(=O)[*:2]; pTerphenylCO(4''-OnC5H11) = CCCCCOc1ccc(-c2ccc(-c3ccc(C(=O)*)cc3)cc2)cc1; hTyr(3S-OH,4S-OH) = N[C@H](C(=O)O)[C@H](O)[C@@H](O)c1ccc(O)cc1; Pro(3S-OH,4S-Me) = C[C@H]1CN[C@H](C(=O)O)[C@H]1O; Hyp = O=C(O)[C@@H]1C[C@@H](O)CN1

| COMPOUND | ENDPOINT_UNIT | half-life |
| --- | --- | --- |
| CCCCCOc1ccc(-c2ccc(-c3ccc(C(=O)N[C@H]4C[C@@H](O)[C@@H](OCC[N+](C)(C)C)NC(=O)[C@@H]5[C@@H](O)[C@@H](C)CN5C(=O)[C@H]([C@@H](C)O)NC(=O)[C@H]([C@H](O)[C@@H](O)c5ccc(O)cc5)NC(=O)[C@@H]5C[C@@H](O)CN5C(=O)[C@H]([C@@H](C)O)NC4=O)cc3)cc2)cc1 [rezafungin] ({pTerphenylCO(4''-OnC5H11)}-[Orn(4R-OH,5R-OCH2CH2NMe3+)]T[Hyp][hTyr(3S-OH,4S-OH)]T[Pro(3S-OH,4S-Me)]; lactam 1-C) | days | 14.2 |

###

Property: Share of total recovered radioactivity in urine; scope: individual molecules
- ASSAY_DETAILS: Rat metabolite profiling (LC-MS with radioactivity detection)
- Type: in vivo, Sprague-Dawley rats
- EXPERIMENTAL_SETUP: rat, in vivo, iv, 15 mg/kg
*1 amine or outer side, *2 acyl side, *3 side chain or, on linkers, in order; H or OH if unused. Where a SMILES comes first, the peptide text is derived from it. Bridges are numbered along the chain shown (N, C = ends). [ ]: non-standard residue; d: D form. The star is where a group is joined. Orn(4R-OH,5R-OCH2CH2NMe3+) = C[N+](C)(C)CCO[C@@H](N[*:3])[C@H](O)C[C@H](N[*:1])C(=O)[*:2]; hTyr(3S-OH,4S-OH) = N[C@H](C(=O)O)[C@H](O)[C@@H](O)c1ccc(O)cc1; X2 = CCCC(O)COc1ccc(-c2ccc(-c3ccc(C(=O)*)cc3)cc2)cc1; X3 = CCC(O)CCOc1ccc(-c2ccc(-c3ccc(C(=O)*)cc3)cc2)cc1; Pro(3S-OH,4S-Me) = C[C@H]1CN[C@H](C(=O)O)[C@H]1O; X4 = O=C(c1ccc(-c2ccc(-c3ccc(O)cc3)cc2)cc1)*; Hyp = O=C(O)[C@@H]1C[C@@H](O)CN1
READOUT: Share of total recovered radioactivity in urine (%)

| MOLECULE | VALUE_MEASURED |
| --- | --- |
| C[C@@H](O)[C@@H]1NC(=O)[C@H]([C@H](O)[C@@H](O)c2ccc(O)cc2)NC(=O)[C@@H]2C[C@@H](O)CN2C(=O)[C@H]([C@@H](C)O)NC(=O)[C@@H](NC(=O)c2ccc(-c3ccc(-c4ccc(O)cc4)cc3)cc2)C[C@@H](O)[C@@H](OCC[N+](C)(C)C)NC(=O)[C@@H]2[C@@H](O)[C@@H](C)CN2C1=O [despentyl-rezafungin] (X4-[Orn(4R-OH,5R-OCH2CH2NMe3+)]T[Hyp][hTyr(3S-OH,4S-OH)]T[Pro(3S-OH,4S-Me)]; lactam 1-C) | 28 |
| CCC(O)CCOc1ccc(-c2ccc(-c3ccc(C(=O)N[C@H]4C[C@@H](O)[C@@H](OCC[N+](C)(C)C)NC(=O)[C@@H]5[C@@H](O)[C@@H](C)CN5C(=O)[C@H]([C@@H](C)O)NC(=O)[C@H]([C@H](O)[C@@H](O)c5ccc(O)cc5)NC(=O)[C@@H]5C[C@@H](O)CN5C(=O)[C@H]([C@@H](C)O)NC4=O)cc3)cc2)cc1 (stereo partly drawn) [3′-hydroxylpentyl rezafungin] (X3-[Orn(4R-OH,5R-OCH2CH2NMe3+)]T[Hyp][hTyr(3S-OH,4S-OH)]T[Pro(3S-OH,4S-Me)]; lactam 1-C) | 1.9 |
| CCCC(O)COc1ccc(-c2ccc(-c3ccc(C(=O)N[C@H]4C[C@@H](O)[C@@H](OCC[N+](C)(C)C)NC(=O)[C@@H]5[C@@H](O)[C@@H](C)CN5C(=O)[C@H]([C@@H](C)O)NC(=O)[C@H]([C@H](O)[C@@H](O)c5ccc(O)cc5)NC(=O)[C@@H]5C[C@@H](O)CN5C(=O)[C@H]([C@@H](C)O)NC4=O)cc3)cc2)cc1 (stereo partly drawn) [2’-hydroxylpentyl rezafungin] (X2-[Orn(4R-OH,5R-OCH2CH2NMe3+)]T[Hyp][hTyr(3S-OH,4S-OH)]T[Pro(3S-OH,4S-Me)]; lactam 1-C) | 7.8 |

###

- ASSAY_DETAILS: Human clinical pharmacokinetics (plasma rezafungin, plasma and whole blood total radioactivity)
- Assay type: in vivo
- EXPERIMENTAL_SETUP: male, plasma, single 400-mg IV infusion, LC-MS/MS, mean (SD), SD
*1 amine or outer side, *2 acyl side, *3 side chain or, on linkers, in order; H or OH if unused. Where a SMILES comes first, the peptide text is derived from it. Bridges are numbered along the chain shown (N, C = ends). [ ]: non-standard residue; d: D form. The star is where a group is joined. Orn(4R-OH,5R-OCH2CH2NMe3+) = C[N+](C)(C)CCO[C@@H](N[*:3])[C@H](O)C[C@H](N[*:1])C(=O)[*:2]; pTerphenylCO(4''-OnC5H11) = CCCCCOc1ccc(-c2ccc(-c3ccc(C(=O)*)cc3)cc2)cc1; hTyr(3S-OH,4S-OH) = N[C@H](C(=O)O)[C@H](O)[C@@H](O)c1ccc(O)cc1; Pro(3S-OH,4S-Me) = C[C@H]1CN[C@H](C(=O)O)[C@H]1O; Hyp = O=C(O)[C@@H]1C[C@@H](O)CN1

| COMPOUND | ENDPOINT_UNIT | Cmax |
| --- | --- | --- |
| CCCCCOc1ccc(-c2ccc(-c3ccc(C(=O)N[C@H]4C[C@@H](O)[C@@H](OCC[N+](C)(C)C)NC(=O)[C@@H]5[C@@H](O)[C@@H](C)CN5C(=O)[C@H]([C@@H](C)O)NC(=O)[C@H]([C@H](O)[C@@H](O)c5ccc(O)cc5)NC(=O)[C@@H]5C[C@@H](O)CN5C(=O)[C@H]([C@@H](C)O)NC4=O)cc3)cc2)cc1 [rezafungin] ({pTerphenylCO(4''-OnC5H11)}-[Orn(4R-OH,5R-OCH2CH2NMe3+)]T[Hyp][hTyr(3S-OH,4S-OH)]T[Pro(3S-OH,4S-Me)]; lactam 1-C) | ng/mL | 18900 |
